# melting point listing for each entry below

* CC(C)(C)C(=O)NC(N)=O | 148 to 149 °C
* CC(C)(C)CC(=O)NC(N)=O | 174 to 175 °C
* CCCCC(CC)C(=O)NC(N)=O (centres unmarked) | 158 to 159 °C

melting point for "CC(C)C(C(=O)NC(N)=O)C(C)C" is 199 to 200 °C

melting point for CCC(C)C(=O)NC(N)=O (centres unmarked) is 178 to 180 °C
